These entries and their values trace back to the DeepSol protein solubility set.

Experiment: soluble on expression in E. coli; label from the status in PepcDB or PDB records
QUANTITY MEASURED: soluble on expression in E. coli

INSERT INTO results (input_sequence, result) VALUES
  ('ATVKQPSIGRYTGKPNPSTGKYTVSFIEGDGIGPEISKSVKKIFSAANVPIEWESCDVSPIFVNGLTTIPDPAVQSITKNLVALKGPLATPIGKGHRSLNLTLRKTFGLFANVRPAKSIEGFKTTYENVDLVLIRENTEGEYSGIEHIVCPGVVQSIKLITRDASERVIRYAFEYARAIGRPRVIVVHKSTIQRLADGLFVNVAKELSKEYPDLTLETELIDNSVLKVVTNPSAYTDAVSVCPNLYGDILSDLNSGLSAGSLGLTPSANIGHKISIFEAVHGSAPDIAGQDKANPTALLLSSVMMLNHMGLTNHADQIQNAVLSTIASGPENRTGDLAGTATTSSFTEAVIKRL', 'soluble'),
  ('SNAAQQVQQPVAQQQVQQPAQQNTNTANAGGNQNQAAPVQNQPVAQPTDIDGTYTGQDDGDRITLVVTGTTGTWTELESDGDQKVKQVTFDSANQRMIIGDDVKIYTVNGNQIVVDDMDRDPSDQIVLTK', 'soluble');

---

Test: soluble on expression in E. coli; label from the status in PepcDB or PDB records
QUANTITY MEASURED: soluble on expression in E. coli

INSERT INTO assay_data (input_sequence, result) VALUES
  ('MSDRKAVIKNADMSEDMQQDAVDCATQAMEKYNIEKDIAAYIKKEFDKKYNPTWHCIVGRSGNFGSYVTHETKHFIYFYLGQVAILLFKSG', 'soluble'),
  ('MGHHHHHHSHMAAMLNFNLQQLCGPKCRDLKVENPEKYGFEPKKLLDQLTDIYLQLDCARFAKAIADDQRSYSKELFEEVISKMRKAGIKSTIAIEKFKLLAEKVEEIVAKNARAEIDYSDAPDEFRDPLMDTLMTDPVRLPSGTIMDRSIILRHLLNSPTDPFNRQTLTESMLEPVPELKEQIQAWMREKQNSDH', 'soluble'),
  ('MNSLLFVYGTLRKHEKNHHLLAQSACINEQARTKGSLFAAKEGPTVVFNDEDEGYIYGEVYEADELCIHKLDQFFQGYHKQTVFVETDVGIKIALIYFMNKDGCAGFTKISSGDWKEHQMISKSKNPIYYFAYGSCMDNARFQKAGVDHYFQDPVGRAVLKGYTTRFTLKREDGSRADMLEDGGTTEGVLYRIPYSALSYLYKREGVESLTYRPAFVDVEAGGRHYKDCLTFLVLQKEAEIAPPQHYQIEIERGAELYLSPEFTEKLKRHMNSLPKGLEHHHHHH', 'soluble'),
  ('MGSDKIHHHHHHMKNGKISESVLKRSVLKQLHTKSDRILFKPAVGEDCAVISMQAGGKTKLVTATQTFTLDVSDKHVRANCAVYDALNNIYAMGADPVGIELALLVPTTENEAVLRETVRAIDAVCEKAGIVVLGGHTQVSRAVKNIVVTVTAIGEAYEQALTPSSAAAPGMDVIVTGYVGLEGTAILANEKRTELETRFSKAFIDKSAAYIDHISTAMEAASAIGAGVAAIHDASQGGIFGALWDMAEASGIGLDIDLKKLPIRQDTIEISEFFDINPYKLLSGGSLIIIAADGTRVVRELEKTGQNAVIVGATTDSNDRVLISGEERRFLETAQTDEIYKVFN', 'not soluble'),
  ('SMQEKIMRELHVKPSIDPKQEIEDRVNFLKQYVKKTGAKGFVLGISGGQDSTLAGRLAQLAVESIREEGGDAQFIAVRLPHGTQQDEDDAQLALKFIKPDKSWKFDIKSTVSAFSDQYQQETGDQLTDFNKGNVKARTRMIAQYAIGGQEGLLVLGTDHAAEAVTGFFTKYGDGGADLLPLTGLTKRQGRTLLKELGAPERLYLKEPTADLLDEKPQQSDETELGISYDEIDDYLEGKEVSAKVSEALEKRYSMTEHKRQVPASMFDDWWK', 'soluble');

For this sequence ( MRKNILITGVHGYIGNALKDKLIEQGHQVDQINVRNQLWKSTSFKDYDVLIHTAALVHNNSPQARLSDYMQVNMLLTKQLAQKAKAEDVKQFIFMSTMAVYGKEGHVGKSDQVDTQTPMNPTTNYGISKKFAEQALQELISDSFKVAIVRPPMIYGAHCPGNFQRLMQLSKRLPIIPNINNQRSALYIKHLTAFIDQLISLEVTGVYHPQDSFYFDTSSVMYEIRRQSHRKTVLINMPSMLNKYFNKLSVFRKLFGNLIYSNTLYENNNALEIIPGKMSLVIADIMDETTTKDKA ), measured soluble on expression in E. coli is not soluble

For this sequence ( MGEETRRQERRIDAEKRAVSSLLFRIIRSHSTPVANSTASDEATAAAAAGQQNFASRKRRETKKREKSSSSCVSHCFLVMGHGKAFVF ), measured soluble on expression in E. coli is not soluble

For this sequence ( MRGSHHHHHHTDPALRADLSLLKALSEADAIASSEQEVRQILLEEADRLQKEVRFDGLGSVLIRLNESTGPKVMICAHMDEVGFMVRSISREGAIDVLPVGNVRMAARQLQPVRITTREECKIPGLLDGDRQGNDVSAMRVDIGARSYDEVMQAGIRPGDRVTFDTTFQVLPHQRVMGKAFDDRLGCYLLVTLLRELHDAELPAEVWLVASSSEEVGLRGGQTATRAVSPDVAIVLDTACWAKNFDYGAANHRQIGNGPMLVLSDKSLIAPPKLTAWVETVAAEIGVPLQADMFSNGGTDGGAVHLTGTGVPTVVMGPATRHGHCAASIADCRDILQMQQLLSALIQRLTRETVVQLTDFRGLCGR ), measured soluble on expression in E. coli is soluble

For this sequence ( MGSDKIHHHHHHMRAHVTKKTLSEGLGLLERVIPSRSSNPLLTALKVEASEAGLTLSGTNLEIDLSYFVPAEVQAPQSFVIPAHLFAQIVRNLGGELVELELTGGELSVRAGGSDFKLQTGDLEAYPPLSFPTHTDVSLDAAELARALGSVRYAASNEAFQAVFRGIKLEHRPASARVVASDGYRVAIRDFPASGDGRNLIVPARSADELIRVLKDGEARFTYGEGLLSVTTDRVRMNLKLLDGEFPDYERVIPKDVKLQVTLPATALKEAVGRVAVLADKNANNRVEFLVSEGKLRLAAEGDYGRAQDTLDVVQGGAEPAMSLAFNARHVLDALGPIEGDAELLFSGSTSPAIFRASGGGDYMAVMVTLRV ), measured soluble on expression in E. coli is not soluble

For this sequence ( MGSPLPFRLTCVWAGEPSMKKAIIFDCEFLCLEGSQRRFWCAAHDPDPVIAQIGAVKLGLEGGFPLLETYKVLISPVDRHGRRYAIDPFFTRLTGITEENIEAEGVPLQDALSSFDSFSEGAQCWSWGKDELNMMAISTYVAGIQPPMPACRFDNAVRLLLAAGMPVEDLAKTPSNSLADYYGVAHPPLQGHDALGDALSVSYALQHLLRSGKLKPEEFTLAA ), measured soluble on expression in E. coli is soluble

For this sequence ( TDPDADRLGAAVRMPNGDYQVLTGNQLGSIMIHYILEAHQQAGTLPQNAAVLKSIVSSELATAIAEKCNTKMFNVLTGFKFIAEKIQQYEEDHSQTFMFGFEESYGYLVKPFVRDKDAIQALVLLAEVAAFYKKQGKTLYDGLQDIFEEFGYFEE ), measured soluble on expression in E. coli is not soluble

For this sequence ( MAHHHHHHMTGSDEEFEIGDILDIKKKKNGFIYLVNWKGYSDDENTWEPESNLLHLTTFKKKMELLKSAYLNKVDTTQNDGNLLKNHLTSPSSLQEETGTTNITKTKGRNPLISKKKGNKKGVTNKLEAKKLLSTNSDNSQKMSDDEYNESIKQETIENPHDSSLLNVEDVYSVRIKNRKMEFLASLKNASPQWVEESNIRRTGHLNIKVNDFKKYIRRKKTSKGNRIVIKNLHNVGDELYISVIHNINNKEIHSLYPSKVIEYIYPQELLNFLLSRLRYRTA ), measured soluble on expression in E. coli is soluble
